# target-entity: 5-HT uptake (Rattus norvegicus, UniProt P31652)
# Construct: from tissue; host or cells: rat brain synaptosomes (P2 fraction) from marrow (medulla) and pons
# Sequence (P31652 whole entry): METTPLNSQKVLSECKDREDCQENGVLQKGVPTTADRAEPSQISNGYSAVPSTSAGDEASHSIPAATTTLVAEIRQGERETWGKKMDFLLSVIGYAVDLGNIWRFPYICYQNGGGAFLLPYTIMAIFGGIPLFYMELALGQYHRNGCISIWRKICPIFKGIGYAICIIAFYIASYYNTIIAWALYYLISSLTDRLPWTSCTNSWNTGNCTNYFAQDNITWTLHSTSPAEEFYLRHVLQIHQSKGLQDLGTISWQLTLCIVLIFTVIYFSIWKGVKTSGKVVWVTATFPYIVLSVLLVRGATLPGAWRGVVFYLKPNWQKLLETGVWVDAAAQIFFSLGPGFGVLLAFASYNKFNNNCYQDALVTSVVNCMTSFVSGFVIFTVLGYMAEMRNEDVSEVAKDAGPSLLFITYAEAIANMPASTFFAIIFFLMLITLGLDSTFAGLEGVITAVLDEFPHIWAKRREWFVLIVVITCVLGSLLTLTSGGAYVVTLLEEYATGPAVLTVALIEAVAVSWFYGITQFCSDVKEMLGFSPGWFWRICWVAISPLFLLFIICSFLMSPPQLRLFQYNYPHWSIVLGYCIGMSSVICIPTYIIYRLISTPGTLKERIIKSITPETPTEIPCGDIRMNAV
# assay-remarks: Inhibition of 5-HT uptake in rat brain synaptosomes
# Type: biochemical
# assay-context: rat synaptosomes (medulla and pons), [3H]-5-HT
Label -1 if % Inhibition of 5-HT uptake [10 μM] falls below 70%; label 1 in every other case.

{"columns": ["molecule", "group"],
 "data": [
  ["O=C(Cc1cccs1)Nc1nc2c(s1)CCCC2C(=O)NCCCN1CCOCC1 (stereo not drawn) [Example 14]", -1],
  ["CC=CC=CC(=O)Nc1nc2c(s1)CCCC2C(=O)NCC1CCN(Cc2c(Cl)cccc2Cl)C1 (stereo not drawn) [Example 49]", -1],
  ["O=C(Nc1nc2c(s1)CCCC2C(=O)N1CCN(CCc2ccccc2)CC1)c1ccoc1 (stereo not drawn) [Example 71]", -1],
  ["O=C(CC1CCCCC1)Nc1nc2c(s1)CCCC2C(=O)NCC1CCN(Cc2c(Cl)cccc2Cl)C1 (stereo not drawn) [Example 67]", 1],
  ["CN1CCN(C(=O)C2CCCc3sc(NC(=O)c4ccc5ccccc5c4)nc32)CC1 (stereo not drawn) [Example 4]", -1],
  ["CN1CCCC1CCNC(=O)C1CCCc2sc(NC(=O)COc3ccc(F)cc3)nc21 (stereo not drawn) [Example 46]", -1],
  ["CCCCCC(=O)Nc1nc2c(s1)CCCC2C(=O)NCCCN1CCCCC1C (stereo not drawn) [Example 18]", -1],
  ["CCOc1ccccc1CN1CCC(CNC(=O)C2CCCc3sc(NC(=O)COc4ccccc4)nc32)C1 (stereo not drawn) [Example 51]", -1],
  ["CC=CC=CC(=O)Nc1nc2c(s1)CCCC2C(=O)NCC1CCN(Cc2c(F)cccc2Cl)C1 (stereo not drawn) [Example 61]", -1],
  ["O=C(Nc1nc2c(s1)CCCC2C(=O)N1CCCC1CN1CCCC1)c1ccc2ccccc2c1 (stereo not drawn) [Example 26]", 1],
  ["CC(=O)c1ccc(N2CCN(C(=O)C3CCCc4sc(NC(=O)c5ccco5)nc43)CC2)cc1 (stereo not drawn) [Example 8]", 1]
]}
